biological target: SARS-COV-2 3CLpro/Mpro protease (Severe acute respiratory syndrome coronavirus 2 (2019-nCoV) (SARS-CoV-2)); assay: Inhibitory effect on SARS-COV-2 3CLpro/Mpro protease by fluorescence resonance energy transfer; assay type: biochemical; conditions: activity intervals A-D, read-out: IC50 (nM), Inhibition on SARS-CoV-2 3CLpro/Mpro protease
In this section we review reported IC50 values for a set of compounds.

Observe how each entry below is paired with its result.
- compound: "COCCN1CCN(C(=O)c2cc(Br)cc([N+](=O)[O-])c2N[C@@H]2COCC[C@@H]2NC(=O)c2cncc3cc(Cl)ccc23)CC1"
  measuredValue: "10 to 50 nM"
- compound: "CNc1cncc(C(=O)N2C[C@H](Nc3c(C(=O)N4C[C@@H](C)O[C@@H](C)C4)cc(Br)cc3[N+](=O)[O-])C[C@H]2C(=O)Nc2ccn(C)n2)c1"
  measuredValue: "10 to 50 nM"
- compound: "CNc1cncc(C(=O)N2CCC[C@@H](Nc3c(C(=O)N4CC(=O)NC(C)C4)cc(Br)cc3[N+](=O)[O-])C2)c1 (stereo partly drawn)"
  measuredValue: "50 to 100 nM"
- compound: "CNc1cncc(C(=O)N2C[C@H](Nc3c(C(=O)N4C[C@@H](C)O[C@@H](C)C4)cc(Br)cc3[N+](=O)[O-])C[C@H]2C(=O)NCc2ccccc2)c1"
  measuredValue: "10 to 50 nM"
- compound: "CNc1cncc(C(=O)N2C[C@H](Nc3c(C(=O)N4C[C@@H](C)O[C@@H](C)C4)cc(Br)cc3[N+](=O)[O-])C[C@H]2C(=O)Nc2ccnc(C(F)(F)F)c2)c1"
  measuredValue: "100 to 200 nM"
- compound: "CNc1cncc(C(=O)N2C[C@H](Nc3c(C(=O)N4C[C@@H](C)O[C@@H](C)C4)cc(Br)cc3[N+](=O)[O-])C[C@H]2C(=O)N[C@H]2CCOC2)c1"
  measuredValue: "50 to 100 nM"
- compound: "CNc1cncc(C(=O)N2CC(Nc3c(C(=O)N4CCC5(CCCC5)CC4)cc(Br)cc3[N+](=O)[O-])C(C)(C)C2)c1 (stereo not drawn)"
  measuredValue: "10 to 50 nM"
- compound: "[2H]C([2H])([2H])Nc1cncc(C(=O)N2C[C@H](Nc3c(C(=O)N4C[C@@H](C)O[C@@H](C)C4)cc(Br)cc3[N+](=O)[O-])[C@@H](OC([2H])([2H])[2H])C2)c1"
  measuredValue: "10 to 50 nM"

# evaluate next
Enquiry: Item under review: CNc1cncc(C(=O)N2C[C@H](Nc3c(C(=O)N4C[C@@H](C)O[C@@H](C)C4)cc(Br)cc3[N+](=O)[O-])C[C@H]2C(=O)Nc2ccnc(F)c2)c1 . Reported IC50?
Return: 50 to 100 nM
